Reference for the values: patent US12421249B2

TARGET DESC: APOL1 G1 (Homo sapiens, UniProt O14791, I384M/S342G)
Sequence (O14791 28-398 S342G/I384M): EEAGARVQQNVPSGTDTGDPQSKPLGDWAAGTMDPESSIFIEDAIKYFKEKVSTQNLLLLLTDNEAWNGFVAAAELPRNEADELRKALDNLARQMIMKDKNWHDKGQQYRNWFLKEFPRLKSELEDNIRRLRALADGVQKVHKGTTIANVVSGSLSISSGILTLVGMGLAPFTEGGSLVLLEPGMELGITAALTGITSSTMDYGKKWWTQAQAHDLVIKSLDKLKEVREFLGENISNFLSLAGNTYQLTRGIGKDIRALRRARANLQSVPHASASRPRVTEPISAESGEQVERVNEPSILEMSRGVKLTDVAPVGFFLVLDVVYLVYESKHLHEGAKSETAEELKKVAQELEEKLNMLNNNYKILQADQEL
EXPERIMENT NOTES: Trypanosoma brucei brucei Lysis Assay Using APOL1 Recombinant Protein (AlamarBlue viability readout)
Assay type: cell-based
CONDITION NOTES: Trypanosome Assay; read-out: Trypanosome Assay Max Activity (%)
PROPERTY MEASURED: Emax (%)
Numbers only, in %.

Example results:
Measured Emax (APOL1 G1 (Homo sapiens, UniProt O14791, I384M/S342G)), entry C[C@H]1C[C@@]2(C[C@@H](c3cnn(C)c3)N1)OCCc1cc(Cl)sc12 [Compound 19] : 107

Measured Emax (APOL1 G1 (Homo sapiens, UniProt O14791, I384M/S342G)), entry CCc1cc2c(s1)C(C)COC21C[C@@H](c2cn(C)nn2)N[C@@H](C)C1 (stereo in doubt) [Compound 10] : 101

Measured Emax (APOL1 G1 (Homo sapiens, UniProt O14791, I384M/S342G)), entry Cc1coc([C@@H]2C[C@]3(C[C@H](C)N2)OCCc2cc(Cl)sc23)n1 (racemic) [Compound 155] : 97

The record that follows has no Emax shown yet.
Measured Emax (APOL1 G1 (Homo sapiens, UniProt O14791, I384M/S342G)), entry Cn1cc(C2CC3(CC(C4CCC4)N2)OCCc2cc(C(F)(F)F)sc23)nn1 (stereo not shown) [Compound 192] : 100

###

TARGET DESC: APOL1 (Homo sapiens, UniProt O14791)
Sequence (O14791 whole entry S342G/I384M, form open): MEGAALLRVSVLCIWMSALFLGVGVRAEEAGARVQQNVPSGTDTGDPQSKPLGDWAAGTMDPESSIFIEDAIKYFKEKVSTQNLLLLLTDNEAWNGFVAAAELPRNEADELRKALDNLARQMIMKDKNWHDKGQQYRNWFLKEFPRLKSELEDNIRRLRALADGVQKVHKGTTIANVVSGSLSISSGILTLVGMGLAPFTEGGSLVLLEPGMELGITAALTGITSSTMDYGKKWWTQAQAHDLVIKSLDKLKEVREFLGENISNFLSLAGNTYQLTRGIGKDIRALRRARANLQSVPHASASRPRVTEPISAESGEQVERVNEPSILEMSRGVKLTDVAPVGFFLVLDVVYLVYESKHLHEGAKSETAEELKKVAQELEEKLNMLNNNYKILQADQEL
EXPERIMENT NOTES: Multi-Tox Assay (MultiTox-Fluor Multiplex Cytotoxicity Assay in tet-inducible APOL1 T-REx-HEK293 cells; Table 46 does not say which APOL1 variant G0/G1/G2)
Format: cell-based
CONDITION NOTES: APOL1 variant not given
So I've got a bunch of compounds here, and I need their Multi-Tox Assay Max Activity (%) values.
Give bare numbers, in %.

Provide reported Multi-Tox Assay Max Activity (%) for each item, in the same order as listed.
1. C[C@H]1C[C@@]2(C[C@@H](c3cn(Cc4cccnn4)nn3)N1)OCC(F)(F)c1cc(Cl)sc12
2. Cc1ccc(Cn2cc([C@@H]3C[C@]4(C[C@H](C)N3)OCC(F)(F)c3cc(Cl)sc34)nn2)nc1
3. C[C@H]1C[C@@]2(C[C@@H](c3cc(C4CCOCC4)[nH]n3)N1)OCCc1cc(Cl)sc12 (stereo in doubt)

[99.0, 96.0, 99.7]

Provide reported Multi-Tox Assay Max Activity (%) for each item, in the same order as listed.
1. COCCOCCn1cc([C@@H]2C[C@]3(C[C@H](C)N2)OCC(F)(F)c2cc(Cl)sc23)nn1
2. C[C@H]1C[C@@]2(C[C@@H](c3cn(Cc4nc5ncccc5[nH]4)nn3)N1)OCC(F)(F)c1cc(Cl)sc12
3. COc1cc(F)cc(Cn2cc([C@@H]3C[C@]4(C[C@H](C)N3)OC[C@@H](O)c3cc(Cl)sc34)nn2)c1
4. CC(C)N1CC(Cn2cc([C@@H]3C[C@]4(C[C@H](C)N3)OC[C@@H](O)c3cc(Cl)sc34)nn2)CC1=O (stereo partly shown)
5. Cc1c(Cn2cc([C@@H]3C[C@]4(C[C@H](C)N3)OCC(F)(F)c3cc(Cl)sc34)nn2)cnn1C
6. C[C@H]1C[C@@]2(C[C@@H](c3cn(Cc4ncnc5[nH]ccc45)nn3)N1)OC[C@@H](O)c1cc(Cl)sc12
7. CCc1cc2c(s1)C(C)COC21C[C@@H](c2cn(C)nn2)N[C@@H](C)C1 (stereo in doubt) [Compound 10]

98.0
99.0
100.0
96.0
97.0
100.0
99.7
